# EXPERIMENTAL_SYSTEM: integrin α4β7 (Homo sapiens, UniProt P13612+P26010)
# Construct: lymphoma cell strain RPMI-8866 of human B cells, known to express integrin α4β7; endogenous in cells; host or cells: RPMI-8866, human B-cell lymphoma line
# Sequence (P13612 34-1032): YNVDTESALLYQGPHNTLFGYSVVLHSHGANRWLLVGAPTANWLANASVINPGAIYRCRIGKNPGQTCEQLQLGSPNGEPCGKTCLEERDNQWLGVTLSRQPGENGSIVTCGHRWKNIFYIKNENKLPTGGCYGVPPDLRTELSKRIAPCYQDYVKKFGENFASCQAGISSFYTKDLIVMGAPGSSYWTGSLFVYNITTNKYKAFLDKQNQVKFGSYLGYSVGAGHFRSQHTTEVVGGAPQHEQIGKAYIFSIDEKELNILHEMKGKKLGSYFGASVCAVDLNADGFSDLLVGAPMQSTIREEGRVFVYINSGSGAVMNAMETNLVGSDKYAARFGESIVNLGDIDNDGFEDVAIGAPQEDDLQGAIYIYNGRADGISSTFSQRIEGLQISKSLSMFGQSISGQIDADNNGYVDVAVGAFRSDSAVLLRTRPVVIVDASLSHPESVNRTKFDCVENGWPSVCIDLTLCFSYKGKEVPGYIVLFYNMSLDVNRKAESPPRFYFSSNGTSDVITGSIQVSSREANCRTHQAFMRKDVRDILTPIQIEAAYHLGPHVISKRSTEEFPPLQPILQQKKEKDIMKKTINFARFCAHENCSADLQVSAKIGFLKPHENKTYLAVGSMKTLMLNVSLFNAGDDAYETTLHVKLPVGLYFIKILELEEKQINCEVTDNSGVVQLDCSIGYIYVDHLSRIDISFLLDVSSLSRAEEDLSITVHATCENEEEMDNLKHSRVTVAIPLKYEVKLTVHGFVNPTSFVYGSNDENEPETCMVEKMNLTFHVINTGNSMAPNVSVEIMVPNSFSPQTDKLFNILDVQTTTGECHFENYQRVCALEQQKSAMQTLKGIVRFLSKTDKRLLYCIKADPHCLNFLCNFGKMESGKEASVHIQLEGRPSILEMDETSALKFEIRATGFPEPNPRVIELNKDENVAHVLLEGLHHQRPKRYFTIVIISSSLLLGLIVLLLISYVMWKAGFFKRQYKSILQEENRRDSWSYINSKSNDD
# Sequence (P26010 20-798): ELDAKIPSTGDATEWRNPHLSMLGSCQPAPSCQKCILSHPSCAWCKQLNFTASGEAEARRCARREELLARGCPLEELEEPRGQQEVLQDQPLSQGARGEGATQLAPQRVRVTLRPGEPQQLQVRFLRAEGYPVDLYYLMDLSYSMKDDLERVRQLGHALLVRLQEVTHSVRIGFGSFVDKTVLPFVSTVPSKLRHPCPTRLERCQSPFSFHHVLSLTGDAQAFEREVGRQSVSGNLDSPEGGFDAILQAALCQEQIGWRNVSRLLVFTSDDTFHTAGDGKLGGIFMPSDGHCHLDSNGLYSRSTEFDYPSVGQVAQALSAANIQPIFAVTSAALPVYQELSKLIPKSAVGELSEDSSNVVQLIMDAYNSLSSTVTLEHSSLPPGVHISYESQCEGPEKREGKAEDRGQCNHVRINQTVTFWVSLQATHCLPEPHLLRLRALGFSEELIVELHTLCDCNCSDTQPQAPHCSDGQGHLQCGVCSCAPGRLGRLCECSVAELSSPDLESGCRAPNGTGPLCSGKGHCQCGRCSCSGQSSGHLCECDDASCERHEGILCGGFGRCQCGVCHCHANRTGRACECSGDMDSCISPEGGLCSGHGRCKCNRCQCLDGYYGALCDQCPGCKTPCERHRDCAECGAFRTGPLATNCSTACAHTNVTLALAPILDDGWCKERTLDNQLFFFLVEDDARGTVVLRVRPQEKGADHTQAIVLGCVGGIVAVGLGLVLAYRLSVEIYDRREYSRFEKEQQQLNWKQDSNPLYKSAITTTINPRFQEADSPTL
# METHOD: Assessment of VCAM-1/α4β7 binding antagonistic activity (RPMI-8866 cells binding to VCAM-1)
# Type: cell-based
# EXPERIMENTAL_PARAMETERS: RPMI-8866 human B lymphoma cells binding to recombinant human VCAM-1, binding buffer with 4 mM MnCl2; read-out: integrin VCAM/α4 binding antagonistic activity (IC50) α4β7
# Description: The capacity of a test substance antagonistic to the binding of lymphoma cell strain RPMI-8866 of human B cells, known to express integrin α4β7, to VCAM-1 was determined. […] RPMI-8866 cells were washed with DMEM twice and incubated in Dulbecco modified Eagle medium containing 10 μg/ml of Calcein-AM (Wako Pure Chemical Industries, Ltd.) (SIGMA, hereinafter referred to as “DMEM”) in dark place at 37° C. for 30 minutes to label with fluorescence. […]
pIC50: −log10 of the molar value.
MEASURED_PROPERTY: pIC50

>  <SMILES_ENTRY>
N#CCn1c(=O)n(-c2ccc(C[C@H](NC(=O)c3c(Cl)cccc3Cl)C(=O)O)cc2)c(=O)c2ccccc21

>  <EXPERIMENTAL_SYSTEM>
integrin α4β7 (Homo sapiens, UniProt P13612+P26010)

>  <QUANTITATIVE_RESULT>
8.48

$$$$
>  <SMILES_ENTRY>
O=C(N[C@@H](Cc1ccc(-n2c(=O)[nH]c3c(Cl)ccc(Cl)c3c2=O)cc1)C(=O)O)c1c(Cl)cccc1Cl

>  <EXPERIMENTAL_SYSTEM>
integrin α4β7 (Homo sapiens, UniProt P13612+P26010)

>  <QUANTITATIVE_RESULT>
7.89

$$$$
>  <SMILES_ENTRY>
O=C(N[C@@H](Cc1ccc(-n2c(=O)c3ccccc3n(Cc3ccc(Cl)c(Cl)c3)c2=O)cc1)C(=O)O)c1c(Cl)cccc1Cl

>  <EXPERIMENTAL_SYSTEM>
integrin α4β7 (Homo sapiens, UniProt P13612+P26010)

>  <QUANTITATIVE_RESULT>
7.44

$$$$
>  <SMILES_ENTRY>
O=C(N[C@@H](Cc1ccc(-n2c(=O)c3ccccc3n(Cc3ccccc3Cl)c2=O)cc1)C(=O)O)c1c(Cl)cccc1Cl

>  <EXPERIMENTAL_SYSTEM>
integrin α4β7 (Homo sapiens, UniProt P13612+P26010)

>  <QUANTITATIVE_RESULT>
7.68

$$$$
>  <SMILES_ENTRY>
O=C(N[C@@H](Cc1ccc(-n2c(=O)c3ccccc3n(Cc3ccc(Cl)cc3Cl)c2=O)cc1)C(=O)O)c1c(Cl)cccc1Cl

>  <EXPERIMENTAL_SYSTEM>
integrin α4β7 (Homo sapiens, UniProt P13612+P26010)

>  <QUANTITATIVE_RESULT>
7.46

$$$$
>  <SMILES_ENTRY>
Cn1c(=O)n(-c2ccc(C[C@H](NC(=O)c3c(Cl)cccc3Cl)C(=O)O)cc2)c(=O)c2cc(NC(=O)C(C)(C)C)ccc21

>  <EXPERIMENTAL_SYSTEM>
integrin α4β7 (Homo sapiens, UniProt P13612+P26010)

>  <QUANTITATIVE_RESULT>
8.55

$$$$
>  <SMILES_ENTRY>
CCOc1nc2ccc(F)cc2c(=O)n1-c1ccc(C[C@H](NC(=O)c2c(Cl)cccc2Cl)C(=O)O)cc1

>  <EXPERIMENTAL_SYSTEM>
integrin α4β7 (Homo sapiens, UniProt P13612+P26010)

>  <QUANTITATIVE_RESULT>
8.24

$$$$
>  <SMILES_ENTRY>
O=C(N[C@@H](Cc1ccc(-n2c(=O)c3ccccc3n(Cc3c(F)cccc3F)c2=O)cc1)C(=O)O)c1c(Cl)cccc1Cl

>  <EXPERIMENTAL_SYSTEM>
integrin α4β7 (Homo sapiens, UniProt P13612+P26010)

>  <QUANTITATIVE_RESULT>
8.55

$$$$
>  <SMILES_ENTRY>
Cn1c(=O)n(-c2ccc(C[C@H](NC(=O)c3c(Cl)cccc3Cl)C(=O)O)cc2)c(=O)c2cc(N3CCCC3)ccc21

>  <EXPERIMENTAL_SYSTEM>
integrin α4β7 (Homo sapiens, UniProt P13612+P26010)

>  <QUANTITATIVE_RESULT>
8.39

$$$$
>  <SMILES_ENTRY>
Cc1ccccc1Cn1c(=O)n(-c2ccc(C[C@H](NC(=O)c3c(Cl)cccc3Cl)C(=O)O)cc2)c(=O)c2ccccc21

>  <EXPERIMENTAL_SYSTEM>
integrin α4β7 (Homo sapiens, UniProt P13612+P26010)

>  <QUANTITATIVE_RESULT>
7.62

$$$$
>  <SMILES_ENTRY>
COc1ccc2c(c1)N(C)C(=O)N(c1ccc(C[C@H](NC(=O)c3c(Cl)cccc3Cl)C(=O)O)cc1)S2(=O)=O

>  <EXPERIMENTAL_SYSTEM>
integrin α4β7 (Homo sapiens, UniProt P13612+P26010)

>  <QUANTITATIVE_RESULT>
8.70

$$$$
>  <SMILES_ENTRY>
Cn1c(=O)n(-c2ccc(C[C@H](NC(=O)c3c(Cl)cncc3Cl)C(=O)O)cc2)c(=O)c2ccccc21

>  <EXPERIMENTAL_SYSTEM>
integrin α4β7 (Homo sapiens, UniProt P13612+P26010)

>  <QUANTITATIVE_RESULT>
9.30

$$$$
>  <SMILES_ENTRY>
CC(C)CNc1nc2ccccc2c(=O)n1-c1ccc(C[C@H](NC(=O)c2c(Cl)cccc2Cl)C(=O)O)cc1

>  <EXPERIMENTAL_SYSTEM>
integrin α4β7 (Homo sapiens, UniProt P13612+P26010)

>  <QUANTITATIVE_RESULT>
7.15

$$$$
